- Experiment description: Bench scale soil treatment (2400 ppmV O3), groundwater over soil slurry
- Format: physicochemical
- Condition label: start
- Experimental: On one foam fire-fighting site, samples of groundwater from monitoring well 1 (MW1) and soil samples between MW1 and monitoring well 3 (MW3) were shipped to the laboratory in coolers with blue ice packing to maintain the temperature at less than 4.4° C. (40° F.). Two sets of tests were conducted, groundwater and soil treatment. For soil samples, 1000 cm^3 of soil was mixed together and then separated into four 250 cm^3 aliquots. The first was submitted as background (start) condition. […]
Property name: PFC concentration in groundwater over soil slurry, START
Format: numeric value only, no unit, no commentary.

Consider the reported PFC concentration in groundwater over soil slurry, START for these molecules:
1) O=S(=O)(O)C(F)(F)C(F)(F)C(F)(F)C(F)(F)C(F)(F)C(F)(F)F [PFHxS, perfluorohexane sulfonate]    300
2) O=S(=O)(O)C(F)(F)C(F)(F)C(F)(F)C(F)(F)C(F)(F)C(F)(F)C(F)(F)C(F)(F)F [PFOS, perfluorooctane sulfonate]    430
3) O=C(O)C(F)(F)C(F)(F)C(F)(F)C(F)(F)C(F)(F)C(F)(F)C(F)(F)F [PFOA, perfluorooctanoic acid]    34
4) O=C(O)C(F)(F)C(F)(F)C(F)(F)C(F)(F)C(F)(F)F [PFHxA, perfluorohexanoic acid]    270

Turning now to a further molecule:
Entry under test: O=C(O)C(F)(F)C(F)(F)C(F)(F)C(F)(F)F [PFPeA, perfluoropentanoic acid] . Its PFC concentration in groundwater over soil slurry, START was 84

* * *

- Experiment description: Bench scale groundwater treatment with peroxide-coated ozone nanobubbles (1260 ppmV O3, 10% H2O2)
- Format: physicochemical
- Condition label: untreated start (0 minutes), groundwater
Satisfied means recorded PFC concentration in groundwater, START is 300 or above; Not satisfied means it is below 300.

1. O=C(O)C(F)(F)C(F)(F)C(F)(F)C(F)(F)F    Not satisfied
2. O=C(O)C(F)(F)C(F)(F)C(F)(F)C(F)(F)C(F)(F)C(F)(F)C(F)(F)F    Not satisfied
3. O=C(O)C(F)(F)C(F)(F)C(F)(F)C(F)(F)C(F)(F)F    Not satisfied

Q: Reported PFC concentration in groundwater, START at or above 300? O=S(=O)(O)C(F)(F)C(F)(F)C(F)(F)C(F)(F)C(F)(F)C(F)(F)C(F)(F)C(F)(F)F [PFOS, perfluorooctane sulfonate]
Result: Satisfied

* * *

- Experiment description: Bench scale soil treatment (2400 ppmV O3), groundwater over soil slurry
- Assay type: physicochemical
- Condition label: 2400 ppmV O3, 10% peroxide, 120 MIN
- Description: On one foam fire-fighting site, samples of groundwater from monitoring well 1 (MW1) and soil samples between MW1 and monitoring well 3 (MW3) were shipped to the laboratory in coolers with blue ice packing to maintain the temperature at less than 4.4° C. (40° F.). Two sets of tests were conducted, groundwater and soil treatment. For soil samples, 1000 cm^3 of soil was mixed together and then separated into four 250 cm^3 aliquots. The first was submitted as background (start) condition. […]
Property name: PFC concentration in groundwater over soil slurry, 120 MIN
Write the number on its own, no unit after it.

Examples with answers:
1. O=C(O)C(F)(F)C(F)(F)C(F)(F)C(F)(F)C(F)(F)F    23
2. O=C(O)C(F)(F)C(F)(F)C(F)(F)C(F)(F)F    6
3. O=S(=O)(O)C(F)(F)C(F)(F)C(F)(F)C(F)(F)C(F)(F)C(F)(F)F [PFHxS, perfluorohexane sulfonate]    8
4. O=C(O)C(F)(F)C(F)(F)C(F)(F)C(F)(F)C(F)(F)C(F)(F)C(F)(F)F    3

O=S(=O)(O)C(F)(F)C(F)(F)C(F)(F)C(F)(F)C(F)(F)C(F)(F)C(F)(F)C(F)(F)F [PFOS, perfluorooctane sulfonate] has a reported PFC concentration in groundwater over soil slurry, 120 MIN of 44

* * *

Each entry below lists one item and its recorded % REMOVAL from groundwater value.
- Experiment description: Bench scale groundwater treatment with peroxide-coated ozone nanobubbles (1260 ppmV O3, 10% H2O2)
- Format: physicochemical
- Condition label: 1260 ppmV O3, 10% H2O2, start to last time point
The reply should contain only the number, in %.

1) O=C(O)C(F)(F)C(F)(F)C(F)(F)C(F)(F)C(F)(F)C(F)(F)C(F)(F)F    73.6
2) O=S(=O)(O)C(F)(F)C(F)(F)C(F)(F)C(F)(F)C(F)(F)C(F)(F)C(F)(F)C(F)(F)F [PFOS, perfluorooctane sulfonate]    82.3
3) O=S(=O)(O)C(F)(F)C(F)(F)C(F)(F)C(F)(F)C(F)(F)C(F)(F)F [PFHxS, perfluorohexane sulfonate]    86
4) O=C(O)C(F)(F)C(F)(F)C(F)(F)C(F)(F)F    82.1

Attention now shifts to the item below.
Reported % REMOVAL from groundwater of `O=C(O)C(F)(F)C(F)(F)C(F)(F)C(F)(F)C(F)(F)F` : 69.2

* * *

Here the recorded PFC concentration in groundwater, 2 HR is given for each entry.
- Experiment description: Bench scale groundwater treatment with peroxide-coated ozone nanobubbles (1260 ppmV O3, 10% H2O2)
- Type: physicochemical
- Condition label: 1260 ppmV O3, 10% H2O2, 2 HR

1) O=C(O)C(F)(F)C(F)(F)C(F)(F)C(F)(F)F [PFPeA, perfluoropentanoic acid]    23
2) O=C(O)C(F)(F)C(F)(F)C(F)(F)C(F)(F)C(F)(F)C(F)(F)C(F)(F)F [PFOA, perfluorooctanoic acid]    13
3) O=S(=O)(O)C(F)(F)C(F)(F)C(F)(F)C(F)(F)C(F)(F)C(F)(F)C(F)(F)C(F)(F)F [PFOS, perfluorooctane sulfonate]    160
4) O=C(O)C(F)(F)C(F)(F)C(F)(F)C(F)(F)C(F)(F)F [PFHxA, perfluorohexanoic acid]    150

Just so you know, measured PFC concentration in groundwater, 2 HR for O=S(=O)(O)C(F)(F)C(F)(F)C(F)(F)C(F)(F)C(F)(F)C(F)(F)F [PFHxS, perfluorohexane sulfonate] came out at 110

* * *

- Experiment description: Bench scale soil treatment (2400 ppmV O3), groundwater over soil slurry
- Type: physicochemical
- Condition label: 2400 ppmV O3, 10% peroxide, 60 MIN
- Method: On one foam fire-fighting site, samples of groundwater from monitoring well 1 (MW1) and soil samples between MW1 and monitoring well 3 (MW3) were shipped to the laboratory in coolers with blue ice packing to maintain the temperature at less than 4.4° C. (40° F.). Two sets of tests were conducted, groundwater and soil treatment. For soil samples, 1000 cm^3 of soil was mixed together and then separated into four 250 cm^3 aliquots. The first was submitted as background (start) condition. […]
Quick list: PFC concentration in groundwater over soil slurry, 60 MIN per entry.
Quick one: just the number, no unit, thanks!

1. O=S(=O)(O)C(F)(F)C(F)(F)C(F)(F)C(F)(F)C(F)(F)C(F)(F)C(F)(F)C(F)(F)F [PFOS, perfluorooctane sulfonate]    33

Data point: O=S(=O)(O)C(F)(F)C(F)(F)C(F)(F)C(F)(F)C(F)(F)C(F)(F)F [PFHxS, perfluorohexane sulfonate] ; PFC concentration in groundwater over soil slurry, 60 MIN = 14

Data point: `O=C(O)C(F)(F)C(F)(F)C(F)(F)C(F)(F)C(F)(F)C(F)(F)C(F)(F)F` ; PFC concentration in groundwater over soil slurry, 60 MIN = 4

Reported PFC concentration in groundwater over soil slurry, 60 MIN of `O=C(O)C(F)(F)C(F)(F)C(F)(F)C(F)(F)F` : 8

Per the records, this compound ( `O=C(O)C(F)(F)C(F)(F)C(F)(F)C(F)(F)C(F)(F)F` ) has PFC concentration in groundwater over soil slurry, 60 MIN equal to 34

* * *

- Experiment description: Bench scale groundwater treatment with peroxide-coated ozone nanobubbles (1260 ppmV O3, 10% H2O2)
- Assay type: physicochemical
- Condition label: 1260 ppmV O3, 10% H2O2, 3 HR
Property name: PFC concentration in groundwater, 3 HR
When you answer, write just the number.

Example entries and their recorded answers appear below.
1. O=C(O)C(F)(F)C(F)(F)C(F)(F)C(F)(F)F [PFPeA, perfluoropentanoic acid]    15
2. O=C(O)C(F)(F)C(F)(F)C(F)(F)C(F)(F)C(F)(F)C(F)(F)C(F)(F)F [PFOA, perfluorooctanoic acid]    9

Notebook: O=C(O)C(F)(F)C(F)(F)C(F)(F)C(F)(F)C(F)(F)F [PFHxA, perfluorohexanoic acid] , PFC concentration in groundwater, 3 HR read as 86

Item: O=S(=O)(O)C(F)(F)C(F)(F)C(F)(F)C(F)(F)C(F)(F)C(F)(F)C(F)(F)C(F)(F)F [PFOS, perfluorooctane sulfonate] | PFC concentration in groundwater, 3 HR: 76

Lab note: measured PFC concentration in groundwater, 3 HR of O=S(=O)(O)C(F)(F)C(F)(F)C(F)(F)C(F)(F)C(F)(F)C(F)(F)F [PFHxS, perfluorohexane sulfonate] was 42
